test: Capivasertib exposure metrics at steady state projected with PopPK model, patients with solid tumors; format: in vivo; settings: human, plasma, oral, 480 mg, OAK, [4/3] BID, PWD 3840 mg, N=30, median (range)
property.name: Cmax (µg/mL)
Reply numerically in µg/mL, unit not repeated.

Task: Quick one: Cmax for NC1(C(=O)N[C@@H](CCO)c2ccc(Cl)cc2)CCN(c2ncnc3[nH]ccc23)CC1 ?
Output: 1.58

---

experiment: Capivasertib exposure metrics at steady state projected with PopPK model, patients with solid tumors; format: in vivo; settings: human, plasma, oral, 640 mg, Study 4 (Japanese patients), [2/5] BID, 640 mg, PWD 2560 mg, N=6, median (range), read-out: AUCss(0–12 h)
property.name: AUC (ng·h/mL)
Number in ng·h/mL, nothing else.

Task: What does the data say about its AUC? Entry: NC1(C(=O)N[C@@H](CCO)c2ccc(Cl)cc2)CCN(c2ncnc3[nH]ccc23)CC1 [capivasertib]
Output: 15200

---

assay: Capivasertib exposure metrics at steady state projected with PopPK model, patients with solid tumors; assay type: in vivo; conditions: human, plasma, oral, 320 mg, Study 4 (Japanese patients), Continuous BID, 320 mg, PWD 4480 mg, N=6, median (range), read-out: Cmin
property.name: concentration at 12 h
// unit must come after the numeric part

Task: Name the recorded concentration at 12 h for NC1(C(=O)N[C@@H](CCO)c2ccc(Cl)cc2)CCN(c2ncnc3[nH]ccc23)CC1 [capivasertib] .
Output: 150 ng/mL

---

experiment: Capivasertib exposure metrics at steady state projected with PopPK model, patients with solid tumors; type: in vivo; details: human, plasma, oral, 600 mg, Study 1, Continuous BID, PWD 8400 mg, N=2, median (range)
property.name: AUC at 1 week (µg·h/mL)
Please reply with the bare figure in µg·h/mL and do not write the unit itself.

Task: Query: AUC at 1 week; subject: NC1(C(=O)N[C@@H](CCO)c2ccc(Cl)cc2)CCN(c2ncnc3[nH]ccc23)CC1
Output: 200

---

experiment: Capivasertib exposure metrics at steady state projected with PopPK model, patients with solid tumors; format: in vivo; conditions: human, plasma, oral, 480 mg, OAK, [4/3] BID, PWD 3840 mg, N=30, median (range)
property.name: AUC at 1 week
Answer by giving the amount and then stating its unit.

Task: # AUC at 1 week lookup, item NC1(C(=O)N[C@@H](CCO)c2ccc(Cl)cc2)CCN(c2ncnc3[nH]ccc23)CC1
Output: 78000 ng·h/mL

---

assay: Capivasertib exposure metrics at steady state projected with PopPK model, patients with solid tumors; assay type: in vivo; conditions: human, plasma, oral, 480 mg, Study 4 (Japanese patients), [4/3] BID, PWD 3840 mg, N=6, median (range)
property.name: Cmax (ng/mL)
Provide the reading as a plain figure in ng/mL.

Task: Returns the measured Cmax for the input compound. Input: NC1(C(=O)N[C@@H](CCO)c2ccc(Cl)cc2)CCN(c2ncnc3[nH]ccc23)CC1 [capivasertib]
Output: 1880

---

assay: Capivasertib exposure metrics at steady state projected with PopPK model, patients with solid tumors; assay type: in vivo; settings: human, plasma, oral, 640 mg, Study 1, [4/3] BID, PWD 5120 mg, N=10, median (range)
property.name: AUC at 1 week
The number alone won't do; follow it with the unit.

Task: Item under review: NC1(C(=O)N[C@@H](CCO)c2ccc(Cl)cc2)CCN(c2ncnc3[nH]ccc23)CC1 . Reported AUC at 1 week?
Output: 127 µg·h/mL

These entries and their values trace back to paper PMC11953117.
